- Assay Target: HIV-1 integrase wild-type (IN1-288) (Human immunodeficiency virus 1, UniProt P04585 P04585:1148-1435)
- Test Summary: inhibition; 3'-processing; other column (strand transfer) 0.870; Table B-7 gives >0.50; only modest inhibition of U5 DNA binding at 500 nM (FIG. 25)
- Assay Setup: G4
Observation Type: IC50 (nM)
Please reply with the bare figure in nM and do not write the unit itself.

## Task Looking for the measured IC50 of GGTTGGTGTGGTTGG (structured_DNA, PS at first and last linkage (Table B-7; Table C-1 says PT)) [T30659 thrombin binding aptamer pPT] , can you help?
## Result 750
